Consider the following variants and their measured protein stability index readings.
B1: EDARADD (parent)
chain: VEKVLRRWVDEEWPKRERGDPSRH

# Variants of: B1
# measurementProtocol: protein stability index of a GFP-peptide fusion (GPS, HEK-293T) (PSI 1-6); higher = more stable;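 also: lentivirally expressed fusions sorted by FACS into six bins by GFP to DsRed ratio, PSI derived from sequencing read proportions per bin multiplied by bin number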
# measurementSetup: c terminus: a fixed tail appended
Form field (numeric): enter value without unit.

IN: Supply measured protein stability index of `E11T` in your reply.
OUT: 2.61

IN: Supply measured protein stability index of `R18I` in your reply.
OUT: 3.12

IN: Supply measured protein stability index of `E11V` in your reply.
OUT: 1.88

IN: Supply measured protein stability index of `P14N` in your reply.
OUT: 2.8

IN: Supply measured protein stability index of `E17C` in your reply.
OUT: 2.26

IN: Supply measured protein stability index of `V9K` in your reply.
OUT: 2.9

Next:
IN: Supply measured protein stability index of `R18W` in your reply.
OUT: 2.64
